- assay_target: T1, Human ANGPT2 Dimer (CC-FLD) (human, UniProt O15123 74-496, limits assumed)
- T1 construct: domain: CC-FLD; also called ANGPT2 protein with His-tag; not shown: His-tag
- T1 sequence (looked up): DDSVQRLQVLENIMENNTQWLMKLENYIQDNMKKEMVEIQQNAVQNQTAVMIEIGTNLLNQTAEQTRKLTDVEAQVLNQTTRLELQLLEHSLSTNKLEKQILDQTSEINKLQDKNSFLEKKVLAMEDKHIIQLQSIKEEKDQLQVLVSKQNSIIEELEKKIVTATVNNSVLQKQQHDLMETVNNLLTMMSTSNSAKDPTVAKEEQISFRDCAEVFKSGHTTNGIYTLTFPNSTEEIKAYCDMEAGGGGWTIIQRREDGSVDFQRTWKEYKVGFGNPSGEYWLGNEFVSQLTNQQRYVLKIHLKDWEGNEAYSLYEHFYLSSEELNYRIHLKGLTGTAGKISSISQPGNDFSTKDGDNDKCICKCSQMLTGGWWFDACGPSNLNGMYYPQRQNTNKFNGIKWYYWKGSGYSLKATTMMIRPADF
- method_notes: flow cytometry blocking assay: antibody titrated against His-tagged human ANGPT2 dimer (CC-FLD) binding to HEK293 human Tie2 cells
pEC50: −log10 of the molar value.
measurement_name: pEC50

>>> data_value("ANGPT2-opt-2 (humanized) (antibody, human IgG1, kappa, V domains shown, also called Ang2-opt-2; ANGP12-opt-2) VH: QVQLVQSGAEVKKPGSSVKVSCKASGYIFIEYFINWVRQAPGQGLEWMGKIGPGSGSSSSNEKFKGRVTITADKSTSTAYMELSSLRSEDTAVYYCAREAFDYEGDYYGMAYWGQGTLVTVSS VL: EIVMTQSPATLSVSPGERATLSCKSSQSLLASGNQKNFLAWYQQKPGQAPRLLIYGASTRESGIPARFSGSGSGTEFTLTISSLQSEDFAVYYCQNDHSYPITFGQGTKLEIKR")
7.83
>>> data_value("ANGPT2-opt-1 (humanized) (antibody, human IgG1, kappa, V domains shown, also called Ang2-opt-1) VH: QVQLVQSGAEVKKPGSSVKVSCKASGYIFIDYFINWVRQAPGQGLEWMGKIGPGSGSSSSNEKFKGRVTITADKSTSTAYMELSSLRSEDTAVYYCAREAFDYEGDYYGMAYWGQGTLVTVSS VL: EIVMTQSPATLSVSPGERATLSCKSSQSLLASGNQKNFLAWYQQKPGQAPRLLIYGASTRESGIPARFSGSGSGTEFTLTISSLQSEDFAVYYCQNDHSYPITFGQGTKLEIKR")
7.88
>>> data_value("ANGPT2-opt-31 (humanized) (antibody, human IgG1, kappa, V domains shown, also called Ang2-opt-31) VH: QVQLVQSGAEVKKPGSSVKVSCKASGYIFIDYFINWVRQAPGQGLEWMGKIGPGSGSSSSNEKFKGRVTITADKSTSTAYMELSSLRSEDTAVYYCAREAFDYDGDYYGMAYWGQGTLVTVSS VL: EIVMTQSPATLSVSPGERATLSCKSSQSLLSSGNQKSFLAWYQQKPGQAPRLLIYGASTRESGIPARFSGSGSGTEFTLTISSLQSEDFAVYYCQNDHSYPITFGQGTKLEIKR")
7.89
>>> data_value("ANGPT2-opt-19 (humanized) (antibody, human IgG1, kappa, V domains shown, also called Ang2-opt-19) VH: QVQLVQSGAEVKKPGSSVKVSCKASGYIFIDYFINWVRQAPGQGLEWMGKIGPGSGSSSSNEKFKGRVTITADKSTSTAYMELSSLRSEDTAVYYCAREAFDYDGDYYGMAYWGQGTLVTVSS VL: EIVMTQSPATLSVSPGERATLSCRASQSVLSSGNQKSFLAWYQQKPGQAPRLLIYGASTRETGIPARFSGSGSGTEFTLTISSLQSEDFAVYYCQQDHSYPITFGQGTKLEIKR")
7.82
>>> data_value("ANGPT2-opt-13 (humanized) (antibody, human IgG1, kappa, V domains shown, also called Ang2-opt-13; ANGPT-opt-13) VH: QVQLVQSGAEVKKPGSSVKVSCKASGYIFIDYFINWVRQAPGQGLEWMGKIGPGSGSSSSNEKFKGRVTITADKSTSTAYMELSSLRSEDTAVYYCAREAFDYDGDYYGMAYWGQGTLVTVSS VL: EIVMTQSPATLSVSPGERATLSCKSSQSLLSSGNQKSFLAWYQQKPGQAPRLLIYGASTRETGIPARFSGSGSGTEFTLTISSLQSEDFAVYYCQNDHSYPITFGQGTKLEIKR")
7.89
